Measured Damage reduced by by item
test system: corn; experiment: Herbicidal pre-emergence action: damage to corn; assay type: in vivo; conditions: pre-emergence; reduction of corn damage by adding safener A3 to the herbicide; printed in the line of the herbicide alone, spans both lines
The reply should contain only the number, in %.

Please review the following examples before continuing.
- Compound: "CCc1cccc(C)c1N(C(=O)CCl)[C@@H](C)COC [Component B5.2, S-metolachlor]"
  Study System: "corn"
  Damage reduced by / %: 78
- Compound: "COc1nn(C(=O)NS(=O)(=O)c2ccccc2OC(F)(F)F)c(=O)n1C [Component B1.1, flucarbazone]"
  Study System: "corn"
  Damage reduced by / %: 78
- Compound: "COc1cc(OC)nc(NC(=O)NS(=O)(=O)c2ncccc2C(=O)N(C)C)n1 [Component B1.6, nicosulfuron]"
  Study System: "corn"
  Damage reduced by / %: 67

Problem: What value of measured Damage reduced by is listed for COc1cc(OC)nc(NC(=O)NS(=O)(=O)c2c(C(=O)O)cnn2C)n1 [Component B1.32, pyrazosulfuron] ?
Solution: 38

Problem: What value of measured Damage reduced by is listed for CCC(CC)Nc1c([N+](=O)[O-])cc(C)c(C)c1[N+](=O)[O-] [Component B10.1, pendimethalin] ?
Solution: 54
